- target of assay: human α4β7 integrin (Homo sapiens, UniProt P13612+P26010)
- Construct: expressed in transfected cells; host or cells: K562 cells, stably transfected
- Sequence (P13612 34-1032): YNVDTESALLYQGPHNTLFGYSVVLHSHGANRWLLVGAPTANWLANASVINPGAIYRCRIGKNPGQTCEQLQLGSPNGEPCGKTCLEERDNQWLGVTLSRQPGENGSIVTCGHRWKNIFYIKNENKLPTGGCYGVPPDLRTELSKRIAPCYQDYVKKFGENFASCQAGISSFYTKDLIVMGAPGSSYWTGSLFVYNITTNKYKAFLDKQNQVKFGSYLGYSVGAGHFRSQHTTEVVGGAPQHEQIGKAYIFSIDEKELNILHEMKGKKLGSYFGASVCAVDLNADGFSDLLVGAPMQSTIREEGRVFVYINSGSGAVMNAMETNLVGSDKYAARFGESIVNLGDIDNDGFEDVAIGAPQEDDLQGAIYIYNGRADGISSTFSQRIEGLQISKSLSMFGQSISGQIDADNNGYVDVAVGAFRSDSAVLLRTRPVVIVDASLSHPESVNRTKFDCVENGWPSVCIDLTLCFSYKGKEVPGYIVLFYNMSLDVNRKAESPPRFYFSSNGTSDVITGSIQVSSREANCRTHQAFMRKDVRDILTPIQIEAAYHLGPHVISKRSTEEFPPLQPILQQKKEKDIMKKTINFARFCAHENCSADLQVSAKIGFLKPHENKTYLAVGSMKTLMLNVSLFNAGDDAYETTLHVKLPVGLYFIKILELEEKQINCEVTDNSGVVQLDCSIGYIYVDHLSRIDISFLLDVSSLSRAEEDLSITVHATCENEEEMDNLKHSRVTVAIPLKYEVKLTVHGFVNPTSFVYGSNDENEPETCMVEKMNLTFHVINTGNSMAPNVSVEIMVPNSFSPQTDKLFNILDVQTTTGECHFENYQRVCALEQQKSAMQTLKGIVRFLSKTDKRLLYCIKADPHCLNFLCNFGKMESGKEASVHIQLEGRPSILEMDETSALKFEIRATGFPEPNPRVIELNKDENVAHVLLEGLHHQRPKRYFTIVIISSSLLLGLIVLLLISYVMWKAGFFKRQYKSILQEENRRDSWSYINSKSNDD
- Sequence (P26010 20-798): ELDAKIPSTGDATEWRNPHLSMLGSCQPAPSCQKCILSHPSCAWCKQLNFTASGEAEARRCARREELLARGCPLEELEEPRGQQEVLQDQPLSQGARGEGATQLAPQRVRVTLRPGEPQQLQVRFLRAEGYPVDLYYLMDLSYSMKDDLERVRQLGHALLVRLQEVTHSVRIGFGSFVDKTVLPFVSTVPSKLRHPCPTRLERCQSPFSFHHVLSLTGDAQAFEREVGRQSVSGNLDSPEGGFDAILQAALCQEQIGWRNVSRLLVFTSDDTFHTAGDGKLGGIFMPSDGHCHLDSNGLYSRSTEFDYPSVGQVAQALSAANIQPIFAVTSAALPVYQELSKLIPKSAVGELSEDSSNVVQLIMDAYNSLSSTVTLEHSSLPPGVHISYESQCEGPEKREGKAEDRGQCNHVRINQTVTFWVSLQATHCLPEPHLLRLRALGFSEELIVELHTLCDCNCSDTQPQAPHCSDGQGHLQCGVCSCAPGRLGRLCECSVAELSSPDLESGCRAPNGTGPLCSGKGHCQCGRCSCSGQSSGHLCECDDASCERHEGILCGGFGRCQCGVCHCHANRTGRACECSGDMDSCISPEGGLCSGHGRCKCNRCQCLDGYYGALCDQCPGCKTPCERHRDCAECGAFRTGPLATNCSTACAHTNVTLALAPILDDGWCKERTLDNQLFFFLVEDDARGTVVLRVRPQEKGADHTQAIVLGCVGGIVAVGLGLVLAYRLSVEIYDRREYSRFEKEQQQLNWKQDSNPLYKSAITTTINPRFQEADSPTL
- measurement notes: α4β7-K562 Cell Adhesion Assay (α4β7 Mediated Adhesion/MAdCAM-1)
- Type: cell-based
- condition parameters: α4β7 IC50, α4β7-K562 cell adhesion to hMAdCAM-1
pIC50: −log10 of the molar value.

line notation: Cn1ncc(NCCCl)c(-c2ccc(C[C@H](NC(=O)c3c(Cl)cccc3Cl)C(=O)O)cc2)c1=O
pIC50: 6.39

----------
- target of assay: α4β1 (Homo sapiens, UniProt P05556+P13612)
- Construct: Ramos Cell Adhesion Assay (α4β1 Mediated Adhesion/VCAM-1); endogenous in cells; host or cells: Ramos cells
- Sequence (P13612 34-1032): as the sequence (P13612 34-1032) above
- Sequence (P05556 21-798): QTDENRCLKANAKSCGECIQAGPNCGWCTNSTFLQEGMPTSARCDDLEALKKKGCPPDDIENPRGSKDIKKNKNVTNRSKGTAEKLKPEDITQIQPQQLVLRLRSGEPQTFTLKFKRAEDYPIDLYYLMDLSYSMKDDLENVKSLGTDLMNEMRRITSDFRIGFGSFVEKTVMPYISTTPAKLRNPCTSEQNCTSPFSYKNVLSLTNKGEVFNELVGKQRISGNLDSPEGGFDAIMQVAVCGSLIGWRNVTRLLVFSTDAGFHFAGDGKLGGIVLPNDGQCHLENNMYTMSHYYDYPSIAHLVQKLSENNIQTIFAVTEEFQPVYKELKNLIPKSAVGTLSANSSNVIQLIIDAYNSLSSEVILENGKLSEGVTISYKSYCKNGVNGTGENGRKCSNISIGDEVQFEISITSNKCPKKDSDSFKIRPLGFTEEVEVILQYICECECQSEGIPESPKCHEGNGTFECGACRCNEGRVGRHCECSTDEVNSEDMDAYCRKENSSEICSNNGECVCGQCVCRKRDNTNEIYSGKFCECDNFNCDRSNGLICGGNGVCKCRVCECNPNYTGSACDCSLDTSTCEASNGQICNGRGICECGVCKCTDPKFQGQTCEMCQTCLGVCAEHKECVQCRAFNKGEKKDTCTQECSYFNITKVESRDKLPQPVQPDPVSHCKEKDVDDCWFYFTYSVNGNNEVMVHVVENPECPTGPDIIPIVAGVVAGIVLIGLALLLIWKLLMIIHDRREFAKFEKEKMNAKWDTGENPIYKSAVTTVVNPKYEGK
- measurement notes: Ramos Cell Adhesion Assay (α4β1 Mediated Adhesion/VCAM-1)
- Format: cell-based
- condition parameters: Ramos cell adhesion to hVCAM-1; read-out: α4β1 IC50
pIC50: −log10 of the molar value.
readout: pIC50

compound: Cn1ncc(O)c(-c2ccc(C[C@H](NC(=O)c3c(Cl)cncc3Cl)C(=O)O)cc2)c1=O
target of assay: α4β1 (Homo sapiens, UniProt P05556+P13612)
result operator: =
recorded measurement: 7.40
//
compound: COc1cnn(Cc2ccccc2)c(=O)c1-c1ccc(C[C@H](NC(=O)c2c(Cl)cccc2Cl)C(=O)O)cc1
target of assay: α4β1 (Homo sapiens, UniProt P05556+P13612)
result operator: =
recorded measurement: 6.29
//
compound: COc1cnn(C)c(=O)c1-c1ccc(C[C@H](NC(=O)c2c(Cl)cccc2Cl)C(=O)OCCN2CCOCC2)cc1
target of assay: α4β1 (Homo sapiens, UniProt P05556+P13612)
result operator: =
recorded measurement: 5.89
//
compound: COc1cnn(C)c(=O)c1-c1ccc(C[C@H](NC(=O)OCC(C)(C)C)C(=O)O)cc1
target of assay: α4β1 (Homo sapiens, UniProt P05556+P13612)
result operator: <
recorded measurement: 5.30
//
compound: CC(C)(C)n1ncc(-n2cncn2)c(-c2ccc(C[C@H](NC(=O)c3c(Cl)cccc3Cl)C(=O)O)cc2)c1=O
target of assay: α4β1 (Homo sapiens, UniProt P05556+P13612)
result operator: =
recorded measurement: 6.21
//
compound: COc1cnn(C)c(=O)c1-c1ccc(C[C@H](NC(=O)C(C(C)C)n2c(C)ccc2C)C(=O)O)cc1 (mixture of isomers)
target of assay: α4β1 (Homo sapiens, UniProt P05556+P13612)
result operator: =
recorded measurement: 5.62
//
compound: Cn1nc2c(c(-c3ccc(C[C@H](NC(=O)c4c(Cl)cccc4Cl)C(=O)O)cc3)c1=O)NCCO2
target of assay: α4β1 (Homo sapiens, UniProt P05556+P13612)
result operator: =
recorded measurement: 6.89
//
compound: COc1cnn(C)c(=O)c1-c1ccc(C[C@H](NC(=O)C23CCC(CC2)CN3)C(=O)O)cc1
target of assay: α4β1 (Homo sapiens, UniProt P05556+P13612)
result operator: =
recorded measurement: 6.58
//
compound: COc1cnn(C)c(=O)c1-c1ccc(C[C@H](NC(=O)C2(NC(=O)OC(C)(C)C)CC2)C(=O)O)cc1
target of assay: α4β1 (Homo sapiens, UniProt P05556+P13612)
result operator: <
recorded measurement: 5.30
//
compound: COc1cn[nH]c(=O)c1-c1ccc(C[C@H](NC(=O)c2c(Cl)cccc2Cl)C(=O)O)cc1
target of assay: α4β1 (Homo sapiens, UniProt P05556+P13612)
result operator: =
recorded measurement: 5.99
//
compound: O=C(N[C@@H](Cc1ccc(-c2c(O)cn[nH]c2=O)cc1)C(=O)O)c1c(Cl)cccc1Cl
target of assay: α4β1 (Homo sapiens, UniProt P05556+P13612)
result operator: <
recorded measurement: 6.00
//
compound: COc1cnn(C)c(=O)c1-c1ccc(C[C@H](NC(=O)OC(C)C)C(=O)O)cc1
target of assay: α4β1 (Homo sapiens, UniProt P05556+P13612)
result operator: <
recorded measurement: 5.30
//
compound: COc1cnn(C)c(=O)c1-c1ccc(C[C@H](NC(=O)C2(NC3CCCCC3)CC2)C(=O)O)cc1
target of assay: α4β1 (Homo sapiens, UniProt P05556+P13612)
result operator: <
recorded measurement: 5.30
//
compound: O=C(N[C@@H](Cc1ccc(-c2c(N3CCOCC3)cnn(CCO)c2=O)cc1)C(=O)O)c1c(Cl)cccc1Cl
target of assay: α4β1 (Homo sapiens, UniProt P05556+P13612)
result operator: =
recorded measurement: 6.66
//
compound: COc1cnn(C)c(=O)c1-c1ccc(C[C@H](NC(=O)CN(C)C(=O)OCc2ccccc2)C(=O)O)cc1
target of assay: α4β1 (Homo sapiens, UniProt P05556+P13612)
result operator: =
recorded measurement: 5.75
